Biological target: recombinant human NGF protein (human, UniProt P01138 122-241)
Sequence (P01138 122-241 limits assumed): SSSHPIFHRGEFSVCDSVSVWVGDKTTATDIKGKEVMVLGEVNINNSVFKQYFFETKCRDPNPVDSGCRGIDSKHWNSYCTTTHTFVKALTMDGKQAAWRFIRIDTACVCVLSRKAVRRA
Test: cell-based or functional assay
MEASUREMENT KIND: IC50, inhibition of NGF-induced proliferation of TF-1 cell

humanized anti-NGF antibody 138E12-10 (antibody, V domains shown) VH: QVQLQESGPGLVKPSETLSLTCTVSGFSLTGYGVNWIRQPPGKGLEWIGMIWFEGSTDYQSALKSRVTISKDNSKSQVSLKLSSVTAADTAVYYCAREGYYYGTTYYFDYWGQGTTVTVSS VL: DIQMTQSPSSLSASVGDRVTITCRASQDISNYLNWYQQKPGKAPKLLIYYTSRLHSGVPSRFSGSGSGTDYTLTISSLQPEDFATYFCQQGNTLPRTFGGGTKVEIK    0.031 nM
humanized anti-NGF antibody 138E12-03 (antibody, V domains shown) VH: QVQLQESGPGLVKPSETLSLTCTVSGFSLTGYGVNWIRQPPGKGLEWLGMIWFEGSTDYNSALKSRLTISKDNSKSQVSLKLSSVTAADTAVYYCAREGYYYGTTYYFDYWGQGTTVTVSS VL: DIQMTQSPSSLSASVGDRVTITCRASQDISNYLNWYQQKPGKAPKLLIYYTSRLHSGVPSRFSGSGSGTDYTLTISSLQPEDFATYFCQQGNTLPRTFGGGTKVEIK    0.13 nM
